- ASSAY_PROCEDURE: Toxicity in HEK293T cells assessed as mortality at 100 uM after 24 hrs LDH assay relative to control
- Type: cell-based
- SETUP_CONDITIONS: human, hek-293t
ENDPOINT: mortality (%)
Give bare numbers, in %.

Some compounds with known mortality results, for comparison:
C#CCC1CC(C)(C)C=C(C(=O)OC)C1=O (stereo not drawn): 7
COC(=O)C1=CC(C)(C)CC(CC(F)(F)F)C1=O (stereo not drawn): 11
COC(=O)C1=CC2(CC(CCCC3CC4(C=C(C(=O)OC)C3=O)OCCO4)C1=O)OCCO2 (stereo not drawn): 9

Working through the 5 compounds below one at a time, give mortality for each.
1. CC1(C)C=C(C(=O)OC(C)(C)C)C(=O)CC1
2. COC(=O)C1=CC(C)(C)CC(CC2CC(C)(C)C=C(C(=O)OC)C2=O)C1=O (stereo not drawn)
3. C=CCOC(=O)C1=CC(C)(C)CCC1=O
4. COC(=O)C1=CC2(CC(CC3CC4(C=C(C(=O)OC)C3=O)OCCO4)C1=O)OCCO2 (stereo not drawn)
5. CC1(C)C=C(COC(=O)C2=CC(C)(C)CCC2=O)C(=O)CC1

Marked response:
16
24
17
12
15

====

Hi there, I'd appreciate the recorded fold change (FC) for every entry that follows.
- STUDY_SYSTEM: Keap1/Nrf2 (Homo sapiens) (UniProt Q16236+Q14145)
- Sequence (Q14145 whole entry, looked up): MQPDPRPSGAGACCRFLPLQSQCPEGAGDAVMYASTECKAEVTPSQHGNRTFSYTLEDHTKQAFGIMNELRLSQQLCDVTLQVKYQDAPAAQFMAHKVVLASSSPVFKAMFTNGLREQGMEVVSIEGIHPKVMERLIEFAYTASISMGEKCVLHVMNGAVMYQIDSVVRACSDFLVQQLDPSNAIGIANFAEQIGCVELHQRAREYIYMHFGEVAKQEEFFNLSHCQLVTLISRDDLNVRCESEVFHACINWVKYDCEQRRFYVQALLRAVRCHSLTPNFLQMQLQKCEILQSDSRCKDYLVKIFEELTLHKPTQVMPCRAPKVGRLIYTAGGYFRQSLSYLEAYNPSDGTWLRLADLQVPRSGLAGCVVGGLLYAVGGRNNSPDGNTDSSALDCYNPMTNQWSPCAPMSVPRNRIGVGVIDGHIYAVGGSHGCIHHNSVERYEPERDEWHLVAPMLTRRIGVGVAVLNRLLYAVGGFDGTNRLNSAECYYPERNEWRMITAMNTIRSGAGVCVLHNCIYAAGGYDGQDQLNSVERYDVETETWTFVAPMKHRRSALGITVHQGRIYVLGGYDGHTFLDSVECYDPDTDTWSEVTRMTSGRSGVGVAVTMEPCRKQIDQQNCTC
- Sequence (Q16236 whole entry, looked up): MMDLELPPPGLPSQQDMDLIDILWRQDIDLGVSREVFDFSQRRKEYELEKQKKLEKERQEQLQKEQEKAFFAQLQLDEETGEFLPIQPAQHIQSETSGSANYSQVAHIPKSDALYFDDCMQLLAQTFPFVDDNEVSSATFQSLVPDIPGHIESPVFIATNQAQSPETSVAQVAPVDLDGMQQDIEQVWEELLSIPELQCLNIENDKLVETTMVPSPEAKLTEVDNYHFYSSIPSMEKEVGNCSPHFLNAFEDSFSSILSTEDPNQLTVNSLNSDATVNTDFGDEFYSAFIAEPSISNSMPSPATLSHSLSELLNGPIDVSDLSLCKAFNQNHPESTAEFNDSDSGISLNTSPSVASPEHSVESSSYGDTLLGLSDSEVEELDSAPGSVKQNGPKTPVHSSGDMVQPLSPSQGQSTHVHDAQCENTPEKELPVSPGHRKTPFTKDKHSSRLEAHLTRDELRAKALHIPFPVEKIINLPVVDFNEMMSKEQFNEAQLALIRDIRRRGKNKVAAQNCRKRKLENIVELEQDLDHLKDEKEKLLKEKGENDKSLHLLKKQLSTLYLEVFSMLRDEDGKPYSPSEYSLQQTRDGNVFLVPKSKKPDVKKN
- ASSAY_PROCEDURE: Inhibition of Keap1-Nrf2 interaction in HEK293T cells assessed as induction of ARE-luciferase gene expression at 100 uM after 24 hrs relative to control
- Format: cell-based
- SETUP_CONDITIONS: HEK-293T
Give bare numbers.

CC1(C)C=C(CO)C(=O)CC1: 1.46
COC(=O)C1=CC(C)(C)CC(C)C1=O (stereo not drawn): 4.6
COC(=O)C1=CC(C)(C)CC(CC#N)C1=O (stereo not drawn): 17.1
C#CCC1CC(C)(C)C=C(C(=O)OC)C1=O (stereo not drawn): 34.2
CC1(C)C=C(Cl)C(=O)CC1: 43.4

I have 3 compounds here; please give me fold change (FC) for each one.
1. CC1(C)C=C(I)C(=O)CC1
2. COC(=O)C1=CC(C)(C)CC(CC2CC(C)(C)C=C(C(=O)OC)C2=O)C1=O (stereo not drawn)
3. COC(=O)CCC1CC(C)(C)C=C(C(=O)OC)C1=O (stereo not drawn)

Marked response:
17.4
101
5.96

Could I get fold change (FC) for every one of these entries?
1. COC(=O)C1(C)CC(C)(C)C=CC1=O (stereo not drawn)
2. COC(=O)C1=CC(C)(C)CC(Cc2ccccc2)C1=O (stereo not drawn)
3. COC(=O)C1CC(C)(C)C=CC1=O (stereo not drawn)
4. C=CCC1CC(C)(C)C=C(C(=O)OC)C1=O (stereo not drawn)
5. CC1(C)C=C(C(=O)O)C(=O)CC1

Marked response:
[4.56, 48.5, 41.9, 25.3, 29.6]

====

- STUDY_SYSTEM: Keap1/Nrf2 (Homo sapiens) (UniProt Q16236+Q14145)
- ASSAY_PROCEDURE: Inhibition of Keap1-Nrf2 interaction in HEK293T cells assessed as induction of ARE-luciferase gene expression at 100 uM after 24 hrs relative to control
- Assay type: cell-based
- SETUP_CONDITIONS: HEK-293T
Give measured fold change (FC) for each item. Keep answers brief.
One number for each entry.

# example entries with known answers
CC1(C)C=C(C(=O)OC(C)(C)C)C(=O)CC1: 106
COC(=O)C1=CC(C)(C)C=CC1=O: 10.3
CC1(C)C=C(COC(=O)C2CC(C)(C)CCC2=O)C(=O)CC1 (centres undefined): 4.02
COC(=O)C1=CC(C)(C)CCC1O (centres undefined): 1.29
COC(=O)C1=CC(C)(C)CC(CC(=O)OC(C)(C)C)C1=O (centres undefined): 1.75
C=CCOC(=O)C1=CC(C)(C)CCC1=O: 94.8
CCCCCCC1CC2(C=C(C(=O)OC)C1=O)OCCO2 (centres undefined): 20.2
CC1(C)C=C(COC(=O)C2=CC(C)(C)CCC2=O)C(=O)CC1: 121

Each compound below has a recorded value; state its fold change (FC).
1. CCCCCCC1CC(C)(C)C=C(C(=O)OC)C1=O (centres undefined)
2. COC(=O)C1=CC(C)(C)CC(CC(C)=O)C1=O (centres undefined)
3. COC(=O)C1=CC(C)(C)CCC1=O
4. COC(=O)C1=CC2(CC(CCCC3CC4(C=C(C(=O)OC)C3=O)OCCO4)C1=O)OCCO2 (centres undefined)
5. COC(=O)C1=CC2(CC(CC3CC4(C=C(C(=O)OC)C3=O)OCCO4)C1=O)OCCO2 (centres undefined)
6. COC(=O)C1=CC(C)(C)CC(CC(F)(F)F)C1=O (centres undefined)

Marked response:
1. 64.7
2. 8.71
3. 50.6
4. 30.9
5. 15.9
6. 17.9
